Value source: ChEMBL document CHEMBL5352469

# procedure-details: MRT (0 to infinity) in Sprague-Dawley rat at 5 mg/kg, iv measured upto 24 hrs by LC/MS/MS analysis
# Assay type: ADME, organism-based
# stated-conditions: in vivo

- chemical-structure: "O=C(O)/C=C\\C(=O)O.O=c1cc(N2CCN(CC3CCCCC3)CC2)sc2c([N+](=O)[O-])cc(C(F)(F)F)cc12"
  MRT inf, h: 2.46
- chemical-structure: "O=c1cc(N2CCN(CC3CCCCC3)CC2)sc2c([N+](=O)[O-])cc(C(F)(F)F)cc12"
  MRT inf, h: 2.99
- chemical-structure: "Cl.O=c1cc(N2CCN(CC3CCCCC3)CC2)sc2c([N+](=O)[O-])cc(C(F)(F)F)cc12"
  MRT inf, h: 2.52

* * *

# procedure-details: AUC (0 to t) in Balb/c mouse at 50 mg/kg, po measured upto 24 hrs by LC/MS/MS analysis
# Format: ADME, organism-based
# Parameters: dose 50 mg/kg, time < 24 hrs, route po
# stated-conditions: Balb/c, in vivo
observation-type: AUC(0-t) at 24 h (ng·h/mL)

- chemical-structure: "O=C(O)/C=C/C(=O)O.O=C(O)/C=C/C(=O)O.O=C(O)/C=C/C(=O)O.O=c1cc(N2CCN(CC3CCCCC3)CC2)sc2c([N+](=O)[O-])cc(C(F)(F)F)cc12.O=c1cc(N2CCN(CC3CCCCC3)CC2)sc2c([N+](=O)[O-])cc(C(F)(F)F)cc12"
  unit-string: "ng·h/mL"
  readout-value: 3440
- chemical-structure: "O=C(O)C[C@H](O)C(=O)O.O=c1cc(N2CCN(CC3CCCCC3)CC2)sc2c([N+](=O)[O-])cc(C(F)(F)F)cc12"
  unit-string: "ng·h/mL"
  readout-value: 7280
- chemical-structure: "O=C(O)CC(O)(CC(=O)O)C(=O)O.O=c1cc(N2CCN(CC3CCCCC3)CC2)sc2c([N+](=O)[O-])cc(C(F)(F)F)cc12"
  unit-string: "ng·h/mL"
  readout-value: 4440
- chemical-structure: "O=C(O)/C=C\\C(=O)O.O=c1cc(N2CCN(CC3CCCCC3)CC2)sc2c([N+](=O)[O-])cc(C(F)(F)F)cc12"
  unit-string: "ng·h/mL"
  readout-value: 7110

* * *

# procedure-details: Efflux ratio of apparent permeability across basolateral to apical side over apical to basolateral side in human Caco-2 cells
# Format: ADME, cell-based

- chemical-structure: "Cl.O=c1cc(N2CCN(CC3CCCCC3)CC2)sc2c([N+](=O)[O-])cc(C(F)(F)F)cc12"
  efflux ratio: 0.36
- chemical-structure: "O=C(O)CC(O)(CC(=O)O)C(=O)O.O=C(O)CC(O)(CC(=O)O)C(=O)O.O=C(O)CC(O)(CC(=O)O)C(=O)O.O=c1cc(N2CCN(CC3CCCCC3)CC2)sc2c([N+](=O)[O-])cc(C(F)(F)F)cc12.O=c1cc(N2CCN(CC3CCCCC3)CC2)sc2c([N+](=O)[O-])cc(C(F)(F)F)cc12"
  efflux ratio: 0.1
- chemical-structure: "O=C(O)CC(O)(CC(=O)O)C(=O)O.O=c1cc(N2CCN(CC3CCCCC3)CC2)sc2c([N+](=O)[O-])cc(C(F)(F)F)cc12"
  efflux ratio: 0.13
- chemical-structure: "O=C(O)/C=C\\C(=O)O.O=c1cc(N2CCN(CC3CCCCC3)CC2)sc2c([N+](=O)[O-])cc(C(F)(F)F)cc12"
  efflux ratio: 0.1
- chemical-structure: "O=c1cc(N2CCN(CC3CCCCC3)CC2)sc2c([N+](=O)[O-])cc(C(F)(F)F)cc12"
  efflux ratio: 0.1
